Value source: patent US20220315571A1

Test system: Rat Cardiac Contractility
Experiment: Echocardiography assessment of acute pharmacodynamic effect in rat cardiac contractility
Format: in vivo, Sprague Dawley rats
Conditions: oral dosing studies, rat; read-out: estimated IC50 (plasma concentration, fractional shortening)
recorded.endpoint: IC50 (µM)
Give the value, in units of µM, as a plain number.

Given the entry CCc1nc(-c2ccc3c(c2)CC[C@H]3NC(=O)c2cnn(C)c2)no1 , report its measured IC50.
7.9
